assay: Particle size and PDI of lipid nanoparticles by dynamic light scattering; format: physicochemical; conditions: lipid nanoparticles with luciferase mRNA; ionizable lipid/cholesterol/DSPC/DMG-PEG2000 50/38.5/10/1.5 mol%
Particle size (nm) values for the compounds below.
Write the number in nm without appending the unit.

Recorded Particle size (nm) of "CCCCCCCCCC(=O)OCCCCCCCN(CCO)CCCCCCC(C)(C)C(=O)OC(CCCCCCCC)CCCCCCCC" , please.
99.55

Recorded Particle size (nm) of CCCCCCCCCCCOC(=O)OCCCCCN(CCCCO)CCCCCC(C)(C)COC(=O)CC(CCCCCCC)CCCCCCC [31b] , please.
118.73

Recorded Particle size (nm) of CCCCCCCCCCCC(=O)OCC(C)(C)CCCCCN(CCO)CCCCCCC(=O)OCC(CCCCCCCCCC)CCCCCCCCCC [97b] , please.
85.56

Recorded Particle size (nm) of CCCCCCCCCCCC(=O)OCC(C)(C)CCCCCN(CCCO)CCCCCCC(=O)OCC(CCCCCCCCCC)CCCCCCCCCC [86b] , please.
92.26

Recorded Particle size (nm) of "CCCCCCCCCOC(=O)CCCCCCCN(CCO)CCCCCC(C)(C)CC(=O)OC(CCCCCCCC)CCCCCCCC" , please.
103.03

Recorded Particle size (nm) of CCCCCCCCCC(=O)OCCCC(C)(C)CCCN(CCO)CCCCCCCC(=O)OCCC(CCCCCC)CCCCCC [71b] , please.
95.59

* * *

Particle size (nm) values for the molecules below.
assay: Particle size and PDI of lipid nanoparticles by dynamic light scattering; format: physicochemical; conditions: lipid nanoparticles with luciferase mRNA; ionizable lipid/cholesterol/DSPC/DMG-PEG2000 50/38.5/10/1.5 mol%
Write the number in nm without appending the unit.

Recorded Particle size (nm) of CCCCCCCCCOC(=O)OCCCCCCN(CCCCO)CCCCCCC(C)(C)C(=O)OCCCC(CCCCC)CCCCC [39a] , please.
144.83

Recorded Particle size (nm) of CCCCCCCCC(CCCCCCCC)OC(=O)C(C)(C)CCCCCCN(CCO)CCCCCCCOC(=O)CCCC(CCCCC)CCCCC [7b] , please.
101.67

Recorded Particle size (nm) of CCCCCCCCCC(=O)OCC1(CCCCCN(CCCO)CCCCCCCC(=O)OCC(CCCCCCC)CCCCCCC)CC1 [58b] , please.
112.93

Recorded Particle size (nm) of CCCCCCCCCOC(=O)CCCCCCCN(CCO)CCCCCCC1(C(=O)OC(CCCCCCCC)CCCCCCCC)CC1 [6a] , please.
90.67

Recorded Particle size (nm) of CCCCCCCCCC(=O)OCCC(C)(C)CCCCN(CCCCO)CCCCCCCC(=O)OCC(CCCCCCC)CCCCCCC [59b] , please.
127.23

Recorded Particle size (nm) of CCCCCCCCCCOC(=O)CCCCCCCN(CCO)CCCCCC(C)(C)COC(=O)CCC(CCCCCC)CCCCCC [20b] , please.
107.83

Recorded Particle size (nm) of CCCCCCCCCCC(=O)OCCCC(C)(C)CCCN(CCCCO)CCCCCCC(=O)OCC(CCCCCCCCC)CCCCCCCCC [115b] , please.
100.25

Recorded Particle size (nm) of CCCCCCCC(CCCCCCC)COC(=O)CCCCC(C)(C)CCN(CCO)CCCCCCOC(=O)OCC(CCCCCCC)CCCCCCC [50a] , please.
78.03

* * *

Particle-size distribution (PDI) values for the molecules below.
test: Particle size and PDI of lipid nanoparticles by dynamic light scattering; type: physicochemical; conditions: lipid nanoparticles with luciferase mRNA; ionizable lipid/cholesterol/DSPC/DMG-PEG2000 50/38.5/10/1.5 mol%
Kindly provide the number alone.

Example results:
Molecule	Particle-size distribution (PDI)
CCCCCCCCCCCOC(=O)OCCCCN(CCO)CCCCCCC(C)(C)C(=O)OC(CCCCCCCC)CCCCCCCC [36a]	0.15
CCCCCCCCCCC(=O)OCC(C)(C)CCCCCN(CCO)CCCCCCCC(=O)OC(CCCCCCCCC)CCCCCCCCC [16b]	0.028
CCCCCCCC(CCCCCCC)COC(=O)CCCCCCCN(CCO)CCCCCC(C)(C)COC(=O)CC(CCCCCCC)CCCCCCC [65b]	0.16

Could you now consider this next molecule?
Recorded Particle-size distribution (PDI) of CCCCCCCCCC(=O)OCC(C)(C)CCCCCN(CCCO)CCCCCCC(=O)OCCC(CCCCCCC)CCCCCCC [77b] , please.
0.16

* * *

Test: Particle size and PDI of lipid nanoparticles by dynamic light scattering
Assay type: physicochemical
Conditions: lipid nanoparticles with luciferase mRNA; ionizable lipid/cholesterol/DSPC/DMG-PEG2000 50/38.5/10/1.5 mol%
Protocol: […] The particle size and particle size dispersity index (PDI) of the prepared lipid nanoparticles were measured using a Zetasizer Pro (purchased from Malvern Instruments Ltd) and a DynaPro NanoStar (purchased from Wyatt) dynamic light scattering instrument. […] This parameter was measured by the method of Quant-it™ RiboGreen RNA Assay (purchased from Invitrogen). […]
Parameter: Particle-size distribution (PDI)
Kindly provide the number alone.

Compound	Readout Number
CCCCCCCCCCC(=O)OCCCCC(C)(C)CCN(CCO)CCCCCCCC(=O)OCCC(CCCCCCC)CCCCCCC [72b]	0.12
CCCCCCCCCCC(=O)OCC(C)(C)CCCCCN(CCCCO)CCCCCCCC(=O)OCCCC(CCCCCC)CCCCCC [63b]	0.09
CCCCCCCCCCC(=O)OCC(C)(C)CCCCCN(CCCCO)CCCCCCC(=O)OCC(CCCCCCCCC)CCCCCCCCC [78b]	0.12

Could you now consider this next compound?
Recorded Particle-size distribution (PDI) of CCCCCCCCCC(=O)OCC1(CCCCCN(CCO)CCCCCCCC(=O)OCC(CCCCCCC)CCCCCCC)CC1 [22b] , please.
0.050

* * *

assay: Particle size and PDI of lipid nanoparticles by dynamic light scattering; assay type: physicochemical; conditions: lipid nanoparticles with luciferase mRNA; ionizable lipid/cholesterol/DSPC/DMG-PEG2000 50/38.5/10/1.5 mol%
Label True for high-side Particle size (nm) (at or above 100 nm) and False for low-side Particle size (nm) (below it).

Some entries whose results are on file:
Molecule	Class Label
CCCCCCCCCCCSC(=O)CCCCCN(CCO)CCCCCCC(C)(C)C(=O)OC(CCCCCCCC)CCCCCCCC [53a]	True
CCCCCCCCCC(=O)OCC1(CCCCCN(CCCCO)CCCCCCOC(=O)OCC(CCCCCCCC)CCCCCCCC)CC1 [36b]	True
CCCCCCCCCOC(=O)CCCCC(C)(C)CCN(CCO)CCCCCCCC(=O)OCC(CCCCCCC)CCCCCCC [26a]	True

Is reported Particle size (nm) greater than or equal to 100 nm here: CCCCCCCCCC(=O)OCC(C)(C)CCCCCN(CCCCO)CCCCCCCC(=O)OCC(CCCCCCC)CCCCCCC [117b]
True

Is reported Particle size (nm) greater than or equal to 100 nm here: CCCCCCCCCCCOC(=O)CCCCCN(CCO)CCCCCCC1(C(=O)OC(CCCCCCCC)CCCCCCCC)CC1 [13a]
True

Is reported Particle size (nm) greater than or equal to 100 nm here: CCCCCCCCCCC(=O)OCCCC(C)(C)CCCN(CCO)CCCCCCC(=O)OCC(CCCCCCCCC)CCCCCCCCC [95b]
False

Is reported Particle size (nm) greater than or equal to 100 nm here: CCCCCCCCCC(=O)OCC(C)(C)CCCCCN(CCCCCCOC(=O)OCC(CCCCCCC)CCCCCCC)C(=O)SCCCN(C)C [47b]
True

Is reported Particle size (nm) greater than or equal to 100 nm here: CCCCCCCCCOC(=O)CCCCCCCN(CCO)CCCCC(C)(C)COC(=O)OCC(CCCCCCC)CCCCCCC [51a]
False

* * *

test: Particle size and PDI of lipid nanoparticles by dynamic light scattering; type: physicochemical; settings: lipid nanoparticles with luciferase mRNA; ionizable lipid/cholesterol/DSPC/DMG-PEG2000 50/38.5/10/1.5 mol%
Parameter: Particle-size distribution (PDI)
Kindly provide the number alone.

Example results:
Molecule	Particle-size distribution (PDI)
CCCCCCCCCCCC(=O)OCC(C)(C)CCCCCN(CCCO)CCCCCCC(=O)OCC(CCCCCCCCCC)CCCCCCCCCC [86b]	0.13
CCCCCCCCCCCOC(=O)CCCCCN(CCO)CCCCCCC1(C(=O)OC(CCCCCCCC)CCCCCCCC)CCCC1 [22a]	0.010
CCCCCCCCCOC(=O)CCCCC(C)(C)CCN(CCO)CCCCCCCC(=O)OC(CCCCCCCC)CCCCCCCC [25a]	0.051
CCCCCCCCCC(=O)OCC(C)(C)CCCCCN(CCCCCCCC(=O)OC(CCCCCCCC)CCCCCCCC)C(=O)SCCCCN(C)C [38b]	0.11
CCCCCCCCCCCOC(=O)OCCCCCCN(CCO)CCCCCCC(C)(C)C(=O)OC(CCCCCCCCCC)CCCCCCCCCC [49a]	0.14

Recorded Particle-size distribution (PDI) of CCCCCCCCCC(=O)OCCCC(C)(C)CCCN(CCCCO)CCCCCCC(=O)OCCCC(CCCCCC)CCCCCC [94b] , please.
0.11

Recorded Particle-size distribution (PDI) of CCCCCCCCCCCOC(=O)OCCCCCN(CCCCO)CCCCCC(C)(C)COC(=O)CC(CCCCCCC)CCCCCCC [31b] , please.
0.07
